EXPERIMENTAL_TARGET: R132H mutant IDH1 enzyme (Homo sapiens (Human), UniProt O75874, R132H)
Sequence (O75874 whole entry R132H): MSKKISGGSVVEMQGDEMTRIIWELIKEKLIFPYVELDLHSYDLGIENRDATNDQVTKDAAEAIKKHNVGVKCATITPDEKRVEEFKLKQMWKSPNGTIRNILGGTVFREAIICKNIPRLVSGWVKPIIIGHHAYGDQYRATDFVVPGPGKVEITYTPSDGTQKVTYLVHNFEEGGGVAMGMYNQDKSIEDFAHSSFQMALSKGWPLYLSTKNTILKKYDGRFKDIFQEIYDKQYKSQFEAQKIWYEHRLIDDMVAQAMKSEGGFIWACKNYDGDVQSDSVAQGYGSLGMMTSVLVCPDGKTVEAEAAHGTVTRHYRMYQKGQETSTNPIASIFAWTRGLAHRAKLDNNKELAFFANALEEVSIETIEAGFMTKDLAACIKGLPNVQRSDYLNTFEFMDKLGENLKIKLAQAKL
MEASUREMENT_PROTOCOL: R132H IDH1 Enzymatic Assay
CONDITION: 1.5 nM final, 30 min preincubation, 60 min reaction, Kinase-GLO luminescence
Method: R132H IDH1 Enzymatic Assay Each test compound (10 mM stock in DMSO) is diluted in DMSO to make a 10-point, 3-fold dilution series. […] Luminescence is measured using a PerkinElmer Envision plate reader. The percent activity of each dilution is determined as the ratio of background corrected signal to the background corrected signal of wells receiving only DMSO. IC50 values are determined by fitting percent activity data to a four-parameter logistic dose response equation. […]
pIC50: −log10 of the molar value.
EXPERIMENTAL_ENDPOINT: pIC50

Known pIC50 results, listed for orientation:
CC(C)O[C@H]1CC[C@H](C(=O)N2c3cc(N4CCOCC4)ccc3Nc3ncccc3C2C)CC1 (stereo partly shown) | 7.14
CO[C@H]1C[C@H]2CC[C@@H](C1)N2c1cc2c(cc1F)Nc1ncc(F)cc1CN2C(=O)C1CCN(CC(F)(F)F)CC1 | 7.85
Cc1c(N2C[C@@H]3CC[C@H]2CO3)ccc2c1N(C(=O)[C@H]1CC[C@H](OC(C)C)CC1)Cc1cccnc1N2 | 7.23

P. Cn1nccc1-c1cc2c(cc1F)Nc1ncccc1CN2C(=O)C1CCN(CC(F)(F)F)CC1
Q. CC(C)O[C@H]1CC[C@H](C(=O)N2Cc3cc(F)cnc3Nc3ccc([C@@H]4COCCO4)cc32)OC1
R. CC(C)OC1CCC(C(=O)N2c3cc(Cl)ccc3Nc3ncccc3C2C)CC1 (stereo not shown)
S. CC(C)O[C@H]1CC[C@H](C(=O)N2Cc3cc(F)cnc3Nc3ccc(N4CC5CCC4CO5)cc32)CC1 (single isomer, unassigned) [Example 14]
[in] Task field, ranking: reported pIC50, descending order. Your answer should be the labels, listed in the requested order.
[out] P, Q, S, R

====

EXPERIMENTAL_TARGET: R132H mutant IDH1 enzyme (Homo sapiens (Human), UniProt O75874, R132H)
MEASUREMENT_PROTOCOL: R132H IDH1 Enzymatic Assay
CONDITION: 1.5 nM final, 30 min preincubation, 60 min reaction, Kinase-GLO luminescence
pIC50: −log10 of the molar value.
EXPERIMENTAL_ENDPOINT: pIC50

Known pIC50 results, listed for orientation:
CC(C)O[C@H]1CC[C@H](C(=O)N2Cc3cccnc3Nc3cc(F)c(N4C[C@@H]5C[C@H]4CO5)cc32)OC1 | 7.33
O=C(C1CCN(CC(F)(F)F)CC1)N1Cc2cc(F)cnc2Nc2cc(F)c(Cl)cc21 | 7.95
CO[C@H]1C[C@H]2CC[C@@H](C1)N2c1ccc2c(c1)N(C(=O)[C@H]1CC[C@H](OC(C)C)CO1)Cc1cc(F)cnc1N2 | 7.98
Cn1nccc1-c1cc2c(cc1F)Nc1ncc(F)cc1CN2C(=O)C1CCN(CC(F)(F)F)CC1 | 8.46
CO[C@H]1C[C@H]2CC[C@@H](C1)N2c1cc2c(cc1F)Nc1ncc(F)cc1CN2C(=O)[C@H]1CC[C@H](OC(C)C)CO1 | 7.80

A. O=C(C1CCN(CC(F)(F)F)CC1)N1Cc2cc(F)cnc2Nc2ccc([C@H]3COCCO3)cc21
B. CC(C)O[C@H]1CC[C@H](C(=O)N2Cc3cc(F)cnc3Nc3ccc(N4CC5(CCCOC5)C4)cc32)CC1
[in] Returns the identifier with the smallest measured pIC50 among A and B . Write down the label attached to your selection.
[out] B
(B: 7.62, A: 8.25)

====

EXPERIMENTAL_TARGET: R132H mutant IDH1 enzyme (Homo sapiens (Human), UniProt O75874, R132H)
MEASUREMENT_PROTOCOL: R132H IDH1 Enzymatic Assay
CONDITION: 1.5 nM final, 30 min preincubation, 60 min reaction, Kinase-GLO luminescence
EXPERIMENTAL_ENDPOINT: IC50 (nM)

O=C(C1CCN(CC(F)(F)F)CC1)N1Cc2cc(F)cnc2Nc2ccc(N3CC4CCC3CO4)cc21 (single isomer, unassigned) [Example 9] | 21.7

a. CC(C)O[C@H]1CC[C@H](C(=O)N2Cc3cc(F)cnc3Nc3ccc(N4[C@@H]5CO[C@H]6[C@@H]5OC[C@H]64)cc32)CC1
b. CC(C)O[C@H]1CC[C@H](C(=O)N2Cc3cc(F)cnc3Nc3ccc(N4C[C@H]5CC[C@@H]4CO5)cc32)OC1
[in] Returns the identifier with the smallest measured IC50 among a and b . Write down the label attached to your selection.
[out] b
(b: 10 nM, a: 28.4 nM)

====

EXPERIMENTAL_TARGET: R132H mutant IDH1 enzyme (Homo sapiens (Human), UniProt O75874, R132H)
MEASUREMENT_PROTOCOL: R132H IDH1 Enzymatic Assay
CONDITION: 1.5 nM final, 30 min preincubation, 60 min reaction, Kinase-GLO luminescence
EXPERIMENTAL_ENDPOINT: IC50 (nM)

CO[C@H]1C[C@H]2CC[C@@H](C1)N2c1ccc2c(c1)N(C(=O)C1CCN(CC(F)(F)F)CC1)Cc1cc(F)cnc1N2 | 6.2

1. O=C(C1CCN(CC(F)(F)F)CC1)N1Cc2cc(F)cnc2Nc2cc(F)c(N3[C@@H]4CO[C@H]5[C@@H]4OC[C@H]53)cc21
2. CC(C)O[C@H]1CC[C@H](C(=O)N2Cc3cc(F)cnc3Nc3ccc(N4C[C@H]5COC[C@@H](C4)O5)cc32)OC1
3. CC(C)O[C@H]1CC[C@H](C(=O)N2Cc3cc(F)cnc3Nc3ccc(NCC4(CCl)CCCOC4)cc32)OC1 (stereo partly drawn)
4. CC(C)O[C@H]1CC[C@H](C(=O)N2Cc3cc(F)cnc3Nc3cc(F)c(N4CC5(CCCOC5)C4)cc32)CC1
[in] List by increasing IC50. Your answer should be the labels, listed in the requested order.
[out] 1, 4, 3, 2

A. O=C(C1CCN(CC(F)(F)F)CC1)N1Cc2cc(F)cnc2Nc2cc(F)c(N3C[C@H]4CC[C@@H]3CO4)cc21
B. CC(C)O[C@H]1CC[C@H](C(=O)N2Cc3cc(F)cnc3Nc3cc(F)c(N4C[C@@H]5C[C@H]4CO5)cc32)CC1
[in] Returns the identifier with the smallest measured IC50 among A and B . Write down the label attached to your selection.
[out] B
(B: 5.6 nM, A: 18 nM)

a. O=C(C1CCN(CC(F)(F)F)CC1)N1Cc2cc(F)cnc2Nc2ccc(N3CC4(CCCOC4)C3)cc21
b. O=C(C1CCN(CC(F)(F)F)CC1)N1Cc2cc(F)cnc2Nc2cc(F)c(N3CC4CCC3CO4)cc21 (stereo not drawn) [Example 73]
c. COc1ccc2c(c1)N(C(=O)[C@H]1CC[C@H](OC(C)C)CC1)C(C)c1cccnc1N2 (stereo partly drawn)
d. Cc1c(N2C[C@H]3CC[C@@H]2CO3)ccc2c1N(C(=O)[C@H]1CC[C@H](OC(C)C)CC1)Cc1cccnc1N2
e. CC(C)O[C@H]1CC[C@H](C(=O)N2Cc3cccnc3Nc3cc(F)c(C4COCCO4)cc32)OC1 (stereo partly drawn) [Example 38]
[in] List by increasing IC50. Your answer should be the labels, listed in the requested order.
[out] b, a, e, d, c
(b: 10 nM, a: 22.1 nM, e: 36 nM, d: 54.1 nM, c: 112 nM)

P. O=C(C1CCN(CC(F)(F)F)CC1)N1Cc2cccnc2Nc2cc(F)c([C@H]3COCCO3)cc21
Q. CC(C)O[C@H]1CC[C@H](C(=O)N2Cc3cc(F)cnc3Nc3ccc(N4CC5(CCCOC5)C4)cc32)OC1
[in] Param pair: P , Q . Output: the one whose IC50 is numerically greater. Write down the label attached to your selection.
[out] Q
(Q: 25.5 nM, P: 12.2 nM)

1. Cc1cnc2c(c1)CN(C(=O)[C@H]1CC[C@H](OC(C)C)CC1)c1cc(N3C[C@@H]4CC[C@H]3CO4)ccc1N2
2. CC(C)O[C@H]1CC[C@H](C(=O)N2Cc3cccnc3Nc3cc(F)c(C4COCCO4)cc32)OC1 (stereo partly drawn) [Example 37]
3. CC(C)O[C@H]1CC[C@H](C(=O)N2Cc3cc(F)cnc3Nc3cc(F)c(N4C[C@@H]5C[C@H]4CO5)cc32)OC1
[in] List by increasing IC50. Your answer should be the labels, listed in the requested order.
[out] 3, 2, 1
(3: 17.9 nM, 2: 36.9 nM, 1: 103 nM)

I. O=C(C1CCN(CC(F)(F)F)CC1)N1Cc2cccnc2Nc2cc(F)c(N3[C@@H]4CO[C@H]5[C@@H]4OC[C@H]53)cc21
II. CCS(=O)(=O)N1CCC(C(=O)N2Cc3cc(F)cnc3Nc3ccc(N4CC5CCC4CO5)cc32)CC1 (stereo not drawn)
[in] Returns the identifier with the smallest measured IC50 among I and II . Write down the label attached to your selection.
[out] I
(I: 27.6 nM, II: 87 nM)

1. CC(C)O[C@H]1CC[C@H](C(=O)N2Cc3cc(F)cnc3Nc3ccc(N4CC5CCC4CO5)cc32)CC1 (single isomer, unassigned) [Example 13]
2. O=C(C1CCN(CC(F)(F)F)CC1)N1Cc2cc(F)cnc2Nc2cc(F)c(-c3ccn[nH]3)cc21
[in] Returns the identifier with the smallest measured IC50 among 1 and 2 . Write down the label attached to your selection.
[out] 2
(2: 3.6 nM, 1: 35.5 nM)

P. CC(C)O[C@H]1CC[C@H](C(=O)N2Cc3cccnc3Nc3ccc(N4CC5CCC4CO5)c(F)c32)CC1 (stereo partly drawn)
Q. CC(C)OC1CC[C@H](C(=O)N2Cc3cc(F)cnc3Nc3ccc(N4C[C@@H]5CC[C@H]4CO5)cc32)OC1 (stereo in doubt)
R. Cc1cc2c(cc1N1C[C@@H]3CC[C@H]1CO3)N(C(=O)[C@H]1CC[C@H](OC(C)C)CC1)Cc1cccnc1N2
[in] Task field, ranking: reported IC50, descending order. Your answer should be the labels, listed in the requested order.
[out] P, R, Q
(P: 57 nM, R: 18.3 nM, Q: 12 nM)
